Tested on: 922993-354-T-J3-PDC complex spheroids, viability
Assay: Anticancer human tumor 922993-354-T-J3-PDC patient-derived endometrial carcinoma cell line growth inhibition [GQUAD]
Settings: second compound 0.0316 µM; first compound 0.0316 µM; hits give low values
Kindly apply the following: MET if viability, T/C is less than 90%, NOT MET in every other case.

Here's what some known entries look like.
MOLECULE: O=C(c1cc(Cc2n[nH]c(=O)c3ccccc23)ccc1F)N1CCN(C(=O)C2CC2)CC1 + CN(C)c1ccc(Nc2c3ccc(NC(=O)CCN4CCCC4)cc3nc3cc(NC(=O)CCN4CCCC4)ccc23)cc1
ASSIGNED LABEL: NOT MET
--
MOLECULE: CC1COCCN1c1cc(-c2ccnn2C)c2ccnc(-c3ccn[nH]3)c2n1 (stereo not given) + Cc1[nH]c2ccc(F)cc2c1-c1nc2c3cccnc3c3ncccc3c2[nH]1
ASSIGNED LABEL: MET
--
MOLECULE: COc1cccc2c1C(=O)c1c(O)c3c(c(O)c1C2=O)CC(O)(C(=O)CO)CC3OC1CC(N)C(O)C(C)O1 (stereo not given) + Cc1[nH]c2ccc(F)cc2c1-c1nc2c3cccnc3c3ncccc3c2[nH]1
ASSIGNED LABEL: NOT MET
--
MOLECULE: CCCS(=O)(=O)Nc1ccc(F)c(C(=O)c2c[nH]c3ncc(-c4ccc(Cl)cc4)cc23)c1F + Cc1[nH]c2ccc(F)cc2c1-c1nc2c3cccnc3c3ncccc3c2[nH]1
ASSIGNED LABEL: NOT MET
--
MOLECULE: Cc1cccc(N(C)C(=O)C2C(O)CCN2c2nc(C)cc(C(F)(F)F)c2C#N)c1 (stereo not given) + Cc1cnc(CNC(=O)c2c(=O)c3ccc(N4CCCN(C)CC4)nc3n3c2sc2ccccc23)cn1
ASSIGNED LABEL: MET
--
MOLECULE: O=C(NO)c1cnc(N2CCN(S(=O)(=O)c3ccc4ccccc4c3)CC2)nc1 + CN(C)c1ccc(Nc2c3ccc(NC(=O)CCN4CCCC4)cc3nc3cc(NC(=O)CCN4CCCC4)ccc23)cc1
ASSIGNED LABEL: NOT MET
--
MOLECULE: CCc1c2c(nc3ccc(O)cc13)-c1cc3c(c(=O)n1C2)COC(=O)[C@]3(O)CC + Cc1cnc(CNC(=O)c2c(=O)c3ccc(N4CCCN(C)CC4)nc3n3c2sc2ccccc23)cn1
ASSIGNED LABEL: MET
--
MOLECULE: CC(C)(O)C1CCC(Nc2ccc3ncc(-c4cccc(C(F)(F)F)c4)n3n2)CC1 (stereo not given) + Cc1[nH]c2ccc(F)cc2c1-c1nc2c3cccnc3c3ncccc3c2[nH]1
ASSIGNED LABEL: NOT MET

[Q] For this molecule, is viability, T/C lower than 90%? COc1ncnc(C2CC2)c1-c1ncc2cnn(Cc3ccc(-c4nc(C(F)(F)F)cn4C(C)C)cc3)c2n1 + CN(C)c1ccc(Nc2c3ccc(NC(=O)CCN4CCCC4)cc3nc3cc(NC(=O)CCN4CCCC4)ccc23)cc1
[A] NOT MET

[Q] For this molecule, is viability, T/C lower than 90%? CC1COCCN1c1cc(C2(O)CC3CCC(C2)O3)c2cnn(-c3ccn[nH]3)c2n1 (stereo not given) + Cc1cnc(CNC(=O)c2c(=O)c3ccc(N4CCCN(C)CC4)nc3n3c2sc2ccccc23)cn1
[A] MET

[Q] For this molecule, is viability, T/C lower than 90%? Cc1[nH]c2ccccc2c1CCNCc1ccc(/C=C/C(=O)NO)cc1 + CN(C)c1ccc(Nc2c3ccc(NC(=O)CCN4CCCC4)cc3nc3cc(NC(=O)CCN4CCCC4)ccc23)cc1
[A] MET

[Q] For this molecule, is viability, T/C lower than 90%? CC(C)n1c(=O)n(C)c2cnc3cc(F)c(-c4ccc(OCCCN5CCCCC5)nc4)cc3c21 + Cc1cnc(CNC(=O)c2c(=O)c3ccc(N4CCCN(C)CC4)nc3n3c2sc2ccccc23)cn1
[A] MET

[Q] For this molecule, is viability, T/C lower than 90%? O=c1[nH]cc(F)c(=O)[nH]1 + Cc1cnc(CNC(=O)c2c(=O)c3ccc(N4CCCN(C)CC4)nc3n3c2sc2ccccc23)cn1
[A] MET

----------
Tested on: 922993-354-T-J3-PDC complex spheroids, viability
Assay: Anticancer human tumor 922993-354-T-J3-PDC cell line growth inhibition [GQUAD];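 also: spheroids exposed to compounds for seven days; 100% = DMSO vehicle control viability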
Settings: second compound 0.1 µM; first compound 1 µM; hits give low values
MEASUREMENT LABEL: viability, T/C (%)
The answer is to be given in %; state only the numeric part.

// solved cases for viability, T/C follow
MOLECULE: COc1cccc2c1C(=O)c1c(O)c3c(c(O)c1C2=O)CC(O)(C(=O)CO)CC3OC1CC(N)C(O)C(C)O1 (stereo not given) + Cc1cnc(CNC(=O)c2c(=O)c3ccc(N4CCCN(C)CC4)nc3n3c2sc2ccccc23)cn1
viability, T/C (%): 51.1

MOLECULE: CC1COCCN1c1cc(C2(S(C)(=N)=O)CC2)nc(-c2ccnc3[nH]ccc23)n1 (stereo not given) + Cc1[nH]c2ccc(F)cc2c1-c1nc2c3cccnc3c3ncccc3c2[nH]1
viability, T/C (%): 132

MOLECULE: CC1COCCN1c1cc(C2(O)CC3CCC(C2)O3)c2cnn(-c3ccn[nH]3)c2n1 (stereo not given) + CN(C)c1ccc(Nc2c3ccc(NC(=O)CCN4CCCC4)cc3nc3cc(NC(=O)CCN4CCCC4)ccc23)cc1
viability, T/C (%): 29.8

MOLECULE: O=C(c1cc(Cc2n[nH]c(=O)c3ccccc23)ccc1F)N1CCN(C(=O)C2CC2)CC1 + Cc1cnc(CNC(=O)c2c(=O)c3ccc(N4CCCN(C)CC4)nc3n3c2sc2ccccc23)cn1
viability, T/C (%): 49.1

[Q] State its viability, T/C: C=CC(=O)N1CCN(c2nc(=O)n(-c3c(C)ccnc3C(C)C)c3nc(-c4c(O)cccc4F)c(F)cc23)C(C)C1 (stereo not given) + CN(C)c1ccc(Nc2c3ccc(NC(=O)CCN4CCCC4)cc3nc3cc(NC(=O)CCN4CCCC4)ccc23)cc1
[A] 94.5

----------
System: 922993-354-T-J3-PDC complex spheroids, viability
Experiment: Anticancer human tumor 922993-354-T-J3-PDC cell line growth inhibition [GQUAD];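 also: spheroids exposed to compounds for seven days; 100% = DMSO vehicle control viability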
Settings: second compound 0.1 µM; first compound 0.316 µM; hits give low values
From the text: DNA G-quadruplex Stabilizer Agents in Combinations in Complex Spheroids A high-throughput screen of multi-cell type tumor spheroids was designed to identify active combinations of DNA G-quadruplex stabilizer agents and targeted small molecules. […] Compounds. […] If the clinical Cmax for an agent had not been determined, the highest concentration tested was 10 microM. […]
Recorded viability, T/C for the following compounds
The answer is to be given in %; state only the numeric part.

COMPOUND: O=C(NO)c1cnc(N2CCN(S(=O)(=O)c3ccc4ccccc4c3)CC2)nc1 + Cc1[nH]c2ccc(F)cc2c1-c1nc2c3cccnc3c3ncccc3c2[nH]1
NUMBER: 65
//
COMPOUND: C#Cc1c(F)ccc2cc(O)cc(-c3ncc4c(N5CC6CCC(C5)N6)nc(OCC56CCCN5CC(F)C6)nc4c3F)c12 (centres undefined) + Cc1[nH]c2ccc(F)cc2c1-c1nc2c3cccnc3c3ncccc3c2[nH]1
NUMBER: 94.7
//
COMPOUND: CC[C@@]1(O)C(=O)OCc2c1cc1n(c2=O)Cc2cc3c(CN(C)C)c(O)ccc3nc2-1 + Cc1[nH]c2ccc(F)cc2c1-c1nc2c3cccnc3c3ncccc3c2[nH]1
NUMBER: 55.6
//
COMPOUND: O=C(NO)c1cnc(N2CCN(S(=O)(=O)c3ccc4ccccc4c3)CC2)nc1 + Cc1cnc(CNC(=O)c2c(=O)c3ccc(N4CCCN(C)CC4)nc3n3c2sc2ccccc23)cn1
NUMBER: 32.4
//
COMPOUND: Cn1ncnc1[C@H]1c2n[nH]c(=O)c3cc(F)cc(c23)N[C@@H]1c1ccc(F)cc1 + Cc1[nH]c2ccc(F)cc2c1-c1nc2c3cccnc3c3ncccc3c2[nH]1
NUMBER: 54.1
//
COMPOUND: C=CCn1c(=O)c2cnc(Nc3ccc(N4CCN(C)CC4)cc3)nc2n1-c1cccc(C(C)(C)O)n1 + CN(C)c1ccc(Nc2c3ccc(NC(=O)CCN4CCCC4)cc3nc3cc(NC(=O)CCN4CCCC4)ccc23)cc1
NUMBER: 88
//
COMPOUND: CCCS(=O)(=O)Nc1ccc(F)c(C(=O)c2c[nH]c3ncc(-c4ccc(Cl)cc4)cc23)c1F + Cc1[nH]c2ccc(F)cc2c1-c1nc2c3cccnc3c3ncccc3c2[nH]1
NUMBER: 75.7
//
COMPOUND: O=C(NO)c1cnc(N2CCN(S(=O)(=O)c3ccc4ccccc4c3)CC2)nc1 + CN(C)c1ccc(Nc2c3ccc(NC(=O)CCN4CCCC4)cc3nc3cc(NC(=O)CCN4CCCC4)ccc23)cc1
NUMBER: 56.6

[Q] Give viability, T/C only, for COc1cc(C2c3cc4c(cc3C(OC3OC5COC(C)OC5C(O)C3O)C3COC(=O)C23)OCO4)cc(OC)c1O (centres undefined) + CN(C)c1ccc(Nc2c3ccc(NC(=O)CCN4CCCC4)cc3nc3cc(NC(=O)CCN4CCCC4)ccc23)cc1 , using 922993-354-T-J3-PDC complex spheroids, viability data.
[A] 91.3

[Q] Give viability, T/C only, for COc1ncnc(C2CC2)c1-c1ncc2cnn(Cc3ccc(-c4nc(C(F)(F)F)cn4C(C)C)cc3)c2n1 + CN(C)c1ccc(Nc2c3ccc(NC(=O)CCN4CCCC4)cc3nc3cc(NC(=O)CCN4CCCC4)ccc23)cc1 , using 922993-354-T-J3-PDC complex spheroids, viability data.
[A] 80.9

[Q] Give viability, T/C only, for Cc1cccc(N(C)C(=O)C2C(O)CCN2c2nc(C)cc(C(F)(F)F)c2C#N)c1 (centres undefined) + CN(C)c1ccc(Nc2c3ccc(NC(=O)CCN4CCCC4)cc3nc3cc(NC(=O)CCN4CCCC4)ccc23)cc1 , using 922993-354-T-J3-PDC complex spheroids, viability data.
[A] 87.5

[Q] Give viability, T/C only, for C=CC(=O)N1CCN(c2nc(=O)n(-c3c(C)ccnc3C(C)C)c3nc(-c4c(O)cccc4F)c(F)cc23)C(C)C1 (centres undefined) + CN(C)c1ccc(Nc2c3ccc(NC(=O)CCN4CCCC4)cc3nc3cc(NC(=O)CCN4CCCC4)ccc23)cc1 , using 922993-354-T-J3-PDC complex spheroids, viability data.
[A] 112

[Q] Give viability, T/C only, for CC(=O)O[C@H]1C(=O)[C@@]2(C)[C@H]([C@H](OC(=O)c3ccccc3)[C@]3(O)C[C@H](OC(=O)[C@H](O)[C@@H](NC(=O)c4ccccc4)c4ccccc4)C(C)=C1C3(C)C)[C@]1(OC(C)=O)CO[C@@H]1C[C@@H]2O + Cc1[nH]c2ccc(F)cc2c1-c1nc2c3cccnc3c3ncccc3c2[nH]1 , using 922993-354-T-J3-PDC complex spheroids, viability data.
[A] 96.6

[Q] Give viability, T/C only, for COc1ncnc(C2CC2)c1-c1ncc2cnn(Cc3ccc(-c4nc(C(F)(F)F)cn4C(C)C)cc3)c2n1 + Cc1[nH]c2ccc(F)cc2c1-c1nc2c3cccnc3c3ncccc3c2[nH]1 , using 922993-354-T-J3-PDC complex spheroids, viability data.
[A] 90.1

[Q] Give viability, T/C only, for C=CC(=O)N1CCN(c2nc(=O)n(-c3c(C)ccnc3C(C)C)c3nc(-c4c(O)cccc4F)c(F)cc23)C(C)C1 (centres undefined) + Cc1cnc(CNC(=O)c2c(=O)c3ccc(N4CCCN(C)CC4)nc3n3c2sc2ccccc23)cn1 , using 922993-354-T-J3-PDC complex spheroids, viability data.
[A] 52.8

Source: PubChem BioAssay AID2060489
